- Test system: Plasmodium falciparum
- test_details: GSK_TCMDC: Inhibition of Plasmodium falciparum Dd2 in whole red blood cells, using parasite LDH activity as an index of growth. Test compounds present at 2uM
- Type: functional
Inhibition by entry:

>  <molecule>
COc1cc2nc(N3CCC(CNC(=O)c4ccc(-c5ccc(C(=O)N(C)C)cc5O)cc4)CC3)nc(N)c2cc1OC

>  <measured_target>
Plasmodium falciparum

>  <Inhibition>
90%

$$$$
>  <molecule>
Br.Nc1ccc(-c2csc(Nc3ccncc3)n2)cc1

>  <measured_target>
Plasmodium falciparum

>  <Inhibition>
50%

$$$$
>  <molecule>
O=C(NCCc1cccc(Cl)c1Cl)c1cnc(N2CCN(c3ccncc3)CC2)c(Cl)c1.O=C(O)C(F)(F)F

>  <measured_target>
Plasmodium falciparum

>  <Inhibition>
99%

$$$$
>  <molecule>
CCN1CCC(N(Cc2ccc(-c3ccc(C(F)(F)F)cc3)cc2)C(=O)Cn2c(SCc3cccc(F)c3F)cc(=O)c3ccccc32)C1.O=C(O)C(O)C(O)C(=O)O (stereo unspecified)

>  <measured_target>
Plasmodium falciparum

>  <Inhibition>
91%

$$$$
>  <molecule>
COc1cc2c(cc1OC)CC(NCCCCCCNCCc1ccc(Cl)cc1)CC2.Cl (stereo unspecified)

>  <measured_target>
Plasmodium falciparum

>  <Inhibition>
0%

$$$$
>  <molecule>
Cc1ccc(C)c(NC(=O)NC2CCN(c3ccnc(Nc4ccc(F)cc4)n3)C2)c1 (stereo unspecified)

>  <measured_target>
Plasmodium falciparum

>  <Inhibition>
74%

$$$$
>  <molecule>
O=C(O)C(F)(F)F.c1cc(CN2CCCCC2)cc(-c2ccc(-c3nc4ccccc4[nH]3)s2)c1

>  <measured_target>
Plasmodium falciparum

>  <Inhibition>
100%

$$$$
>  <molecule>
Fc1cccc(Nc2nc(NCc3ccc4ccsc4c3)nc(Nc3cccc(F)c3)n2)c1

>  <measured_target>
Plasmodium falciparum

>  <Inhibition>
11%

$$$$
>  <molecule>
COc1ccc(-c2ccc(CNCc3ccc(F)cc3)cc2)cc1S(=O)(=O)NCCN1CCCC1.O=C(O)C(F)(F)F

>  <measured_target>
Plasmodium falciparum

>  <Inhibition>
33%

$$$$
>  <molecule>
COc1cc2nc(NCCn3ccnc3C)nc(NCCc3ccccc3)c2cc1OC

>  <measured_target>
Plasmodium falciparum

>  <Inhibition>
0%

$$$$
>  <molecule>
O=C(Nc1cccc(-c2ccc(-c3nc4cc(C(F)(F)F)ccc4[nH]3)cc2)c1)c1csnn1

>  <measured_target>
Plasmodium falciparum

>  <Inhibition>
93%

$$$$
>  <molecule>
N#Cc1ccc(Sc2nnc(-c3ccccc3Cl)n2CC2CCCCC2)cc1[N+](=O)[O-]

>  <measured_target>
Plasmodium falciparum

>  <Inhibition>
34%

$$$$
>  <molecule>
Oc1cccc(-c2nc(-c3ccccc3)c(-c3ccc(Oc4ccc(-c5[nH]c(-c6cccc(O)c6)nc5-c5ccccc5)cc4)cc3)[nH]2)c1

>  <measured_target>
Plasmodium falciparum

>  <Inhibition>
96%

$$$$
>  <molecule>
CC(CCCCC(=O)Nc1ccc(C(F)(F)F)cc1)NCC(O)c1cccc(Cl)c1 (stereo unspecified)

>  <measured_target>
Plasmodium falciparum

>  <Inhibition>
92%

$$$$
>  <molecule>
COc1ccc2nccc([C@@H](O)CN3CCC(NCc4ccc5nnsc5c4)CC3)c2c1.O=C(O)C(=O)O

>  <measured_target>
Plasmodium falciparum

>  <Inhibition>
0%

$$$$
>  <molecule>
COc1cc2nccc(Nc3ccc(OCc4ccccc4)cc3)c2cc1OC

>  <measured_target>
Plasmodium falciparum

>  <Inhibition>
99%

$$$$
>  <molecule>
COc1ccc2ncc(Cl)c(N3CCC(CCNCc4ccc5c(n4)NC(=O)CS5)CC3)c2c1.Cl

>  <measured_target>
Plasmodium falciparum

>  <Inhibition>
82%

$$$$
>  <molecule>
Cc1ccc2nc(C)cc(Nc3ccccc3O)c2c1.Cl

>  <measured_target>
Plasmodium falciparum

>  <Inhibition>
6%

$$$$
>  <molecule>
Cc1cc(C(=O)Nc2ccc(-c3nc4ccccc4[nH]3)cc2)ccc1[N+](=O)[O-]

>  <measured_target>
Plasmodium falciparum

>  <Inhibition>
47%

$$$$
>  <molecule>
CC(C)CN(Cc1c(O)ccc2[nH]c(-c3ccc(F)cc3F)nc12)CC(C)C

>  <measured_target>
Plasmodium falciparum

>  <Inhibition>
92%

$$$$
>  <molecule>
CC(C)c1cc2c(ccc3nc(N)nc(N)c32)o1

>  <measured_target>
Plasmodium falciparum

>  <Inhibition>
37%

$$$$

The reported numbers originate from ChEMBL document CHEMBL1157539.
